Tested on: FLT4 (human), P35916 [Q890H]
Sequence (P35916 whole entry, looked up, stated change not applied): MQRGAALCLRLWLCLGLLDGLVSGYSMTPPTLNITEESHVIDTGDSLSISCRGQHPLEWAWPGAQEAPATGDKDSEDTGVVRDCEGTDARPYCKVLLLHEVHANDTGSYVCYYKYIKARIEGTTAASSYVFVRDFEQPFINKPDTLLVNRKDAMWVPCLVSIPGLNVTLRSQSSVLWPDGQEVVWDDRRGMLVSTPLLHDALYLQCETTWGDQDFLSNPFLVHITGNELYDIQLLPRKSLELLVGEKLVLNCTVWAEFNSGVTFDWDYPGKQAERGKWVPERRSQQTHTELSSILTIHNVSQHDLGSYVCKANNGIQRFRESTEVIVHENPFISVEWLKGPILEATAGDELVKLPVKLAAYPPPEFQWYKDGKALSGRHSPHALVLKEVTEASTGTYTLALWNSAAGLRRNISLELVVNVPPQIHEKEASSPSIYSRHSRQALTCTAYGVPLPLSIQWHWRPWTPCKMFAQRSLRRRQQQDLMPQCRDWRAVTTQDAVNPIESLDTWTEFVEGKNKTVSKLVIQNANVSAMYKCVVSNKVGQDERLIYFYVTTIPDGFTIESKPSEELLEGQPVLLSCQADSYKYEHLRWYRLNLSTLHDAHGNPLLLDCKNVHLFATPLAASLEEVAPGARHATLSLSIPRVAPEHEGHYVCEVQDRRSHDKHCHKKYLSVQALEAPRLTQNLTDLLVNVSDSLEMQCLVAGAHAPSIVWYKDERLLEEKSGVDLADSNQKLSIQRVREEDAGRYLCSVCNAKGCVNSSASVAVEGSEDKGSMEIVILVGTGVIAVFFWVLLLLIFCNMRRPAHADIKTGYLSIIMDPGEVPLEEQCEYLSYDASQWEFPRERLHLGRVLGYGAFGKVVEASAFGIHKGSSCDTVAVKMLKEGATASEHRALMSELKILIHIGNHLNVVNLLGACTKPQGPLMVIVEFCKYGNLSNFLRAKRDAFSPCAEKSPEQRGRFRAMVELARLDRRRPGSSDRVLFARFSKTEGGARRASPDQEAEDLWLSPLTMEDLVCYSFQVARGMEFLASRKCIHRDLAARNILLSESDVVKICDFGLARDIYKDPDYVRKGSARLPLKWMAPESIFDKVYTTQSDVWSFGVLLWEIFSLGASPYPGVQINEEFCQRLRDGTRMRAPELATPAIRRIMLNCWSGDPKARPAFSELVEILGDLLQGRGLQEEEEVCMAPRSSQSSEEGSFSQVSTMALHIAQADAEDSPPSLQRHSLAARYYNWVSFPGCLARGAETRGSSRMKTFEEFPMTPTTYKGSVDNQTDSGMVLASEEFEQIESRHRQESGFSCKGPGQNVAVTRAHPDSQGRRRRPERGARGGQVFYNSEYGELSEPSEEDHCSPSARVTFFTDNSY
Assay: radiometric filter-binding kinase assay, Kinase HotSpot
Details: compound 0.5 µM; ATP 10 µM
Attribute Measured: residual activity (%)
Give a bare numeral; the unit % is implied.

See these solved cases before continuing.
> print(dat)
                  compound.structure.string                 tested.target  units.label  reported.result
1          O=c1cc(N2CCOCC2)oc2c1ccc1ccccc12  FLT4 (human), P35916 [Q890H]            %              112
2  O=C1C(Cl)=C(N2C(=O)CCC2=O)C(=O)c2ccccc21  FLT4 (human), P35916 [Q890H]            %              102
3       CCCCc1c(-c2ccc(OC)cc2)[nH]c2nccnc12  FLT4 (human), P35916 [Q890H]            %             81.1
4         COc1ccc(OC)c2c(=S)c3ccccc3[nH]c12  FLT4 (human), P35916 [Q890H]            %             98.1
5  CC[C@@H](CO)Nc1nc(NCc2ccccc2)c2ncn(C(C)C)c2n1  FLT4 (human), P35916 [Q890H]            %               94

Request: Using the record for COc1cc2ncnc(Nc3ccc(OCc4ccccc4)cc3)c2cc1OC , report its residual activity.
Result: 98.9

Request: Input COc1cc2ncnc(Nc3ccc(O)c(Br)c3)c2cc1OC
Result: 48.5

Request: Input COc1ccc2c(c1)/C(=C/c1cnc[nH]1)C(O)=N2
Result: 66.4

====

Biological target: AURKC (human) (UniProt Q9UQB9)
Sequence (Q9UQB9 whole entry, looked up): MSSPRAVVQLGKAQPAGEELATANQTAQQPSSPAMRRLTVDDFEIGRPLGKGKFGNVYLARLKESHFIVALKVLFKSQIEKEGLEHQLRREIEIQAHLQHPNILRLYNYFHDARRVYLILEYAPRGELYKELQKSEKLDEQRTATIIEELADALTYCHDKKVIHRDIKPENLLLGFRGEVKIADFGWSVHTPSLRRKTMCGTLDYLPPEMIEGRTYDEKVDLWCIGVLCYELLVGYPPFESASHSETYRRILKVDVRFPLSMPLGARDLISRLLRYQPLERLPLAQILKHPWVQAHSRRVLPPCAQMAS
Assay: radiometric filter-binding kinase assay, Kinase HotSpot
Settings: compound 0.5 µM; ATP 10 µM
Attribute Measured: residual activity (%)
Give a bare numeral; the unit % is implied.

See these solved cases before continuing.
> print(dat)
                  compound.structure.string  units.label  reported.result
1  NC(=O)c1cccc(-c2cc(Nc3ccc(OC(F)(F)F)cc3)ncn2)c1            %              101
2  COc1ccc(S(=O)(=O)N(CCO)c2ccccc2CN(C)C/C=C/c2ccc(Cl)cc2)cc1            %             96.8
3  CS(=O)(=O)CCNCc1ccc(-c2ccc3ncnc(Nc4ccc(OCc5cccc(F)c5)c(Cl)c4)c3c2)o1            %             90.9
4  CO[C@@H]1[C@H](N(C)C(=O)c2ccccc2)C[C@H]2O[C@]1(C)n1c3ccccc3c3c4c(c5c6ccccc6n2c5c31)C(=O)NC4            %               12
5  N#Cc1c[nH]c2c[nH]/c(=N\Cc3cccnc3)cc2/c1=N\c1ccc(F)c(Cl)c1            %             91.8
6        CC(C)(C)c1cc(C=C(C#N)C#N)cc(Br)c1O            %             87.6
7      CN(C)c1ccc(/C=C2\C(=O)Nc3ccccc32)cc1            %             91.1
8           Ic1cccc(CSc2nnc(-c3ccncc3)o2)c1            %             91.2

Request: Using the record for O=C1NC(=O)c2c1c1c3ccccc3[nH]c1n1cncc21 , report its residual activity.
Result: 47.6

Request: Input CN(C)CCCn1cc(C2=C(c3c[nH]c4ccccc34)C(=O)NC2=O)c2ccccc21
Result: 84.7

Request: Input COc1ccc(Cl)cc1NC(=O)Nc1cc(C)nc2ccccc12
Result: 99.9

Request: Input COc1cc2ncnc(Nc3ccc(OCc4ccccc4)cc3)c2cc1OC
Result: 84.8

Request: Input COc1cc2ncnc(Nc3ccc(Oc4ccccc4)cc3)c2cc1OC
Result: 93.9

Request: Input O=C1C(Cl)=C(N2C(=O)CCC2=O)C(=O)c2ccccc21
Result: 97.9

Request: Input Cc1cccc(-c2nc(C(C)(C)C)[nH]c2-c2ccc3c(c2)OCO3)n1
Result: 91.4

Every entry's value here was drawn from the kinase profiling compilation of Christmann-Franck et al. (2016).
